B1: CDC34 (parent)
chain: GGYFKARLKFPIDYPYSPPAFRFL

variants of: B1; test: protein stability index of a GFP-peptide fusion (GPS, HEK-293T) (PSI 1-6); higher = more stable; settings: c terminus: a fixed tail appended;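 also: lentivirally expressed fusions sorted by FACS into six bins by GFP to DsRed ratio, PSI derived from sequencing read proportions per bin multiplied by bin number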
Quantity kind: protein stability index
Enter the number alone.

protein stability index reported for this variant `G1W` : 2.88

response.value for `P19R` (field: protein stability index) = 3.69

Sample `S17H` ; protein stability index observed: 3.25

Recorded result, `A6R` , protein stability index: 3.77

Please fill in: protein stability index reported for `F23R` = 2.42

Recorded protein stability index (variant `A20K` ): 3.03

Reported protein stability index ( `K5T` ) = 2.69

Record `R22C` . Reported protein stability index: 4.57

Entry `R22A` — recorded protein stability index = 4.99

Record `P18K` , field protein stability index: 3.31

The variant listed as `F23I` has a reported protein stability index of 2.08

So, `P11W` ? Its protein stability index was 2.87

Entry `P18E` ; protein stability index = 2.34

Data point: `K5R` ; protein stability index = 2.71

Query `P18C` yields protein stability index of 3.4

Field protein stability index (entry `Y16T` ) reads 2.81

protein stability index measured on `Y14E` = 2.06
